# Tested on: Spleen cells from BDF1 female mice
# ASSAY_DETAILS: Mitogenesis Assay for Immunosuppressive Activity (concanavalin A, 3H-thymidine)
# Assay type: cell-based
# CONDITIONS_USED: Mus musculus; Concanavalin A 5 μg/ml, 72 hours at 37° C., 3H-thimidine uptake last 18 hours; read-out: Mitogenesis IC50
pIC50: −log10 of the molar value.
READOUT_KIND: pIC50

CO[C@@H]1C[C@H](C[C@@H](C)[C@@H]2CC(=O)[C@H](C)/C=C(\C)[C@@H](O)[C@@H](OC)C(=O)[C@H](C)C[C@H](C)/C=C/C=C/C=C(\C)[C@@H](SC)C[C@@H]3CC[C@@H](C)[C@@](O)(O3)C(=O)C(=O)N3CCCC[C@H]3C(=O)O2)CC[C@H]1O [Example 9, 7-Demethoxy-7(S)-methylthiorapamycin]	> 6.30

Could you now consider this next compound?
// query Item under review: CO[C@@H]1C[C@H](C[C@@H](C)[C@@H]2CC(=O)[C@H](C)/C=C(\C)[C@@H](O)[C@@H](OC)C(=O)[C@H](C)C[C@H](C)/C=C/C=C/C=C(\C)[C@@H](c3ccco3)C[C@@H]3CC[C@@H](C)[C@@](O)(O3)C(=O)C(=O)N3CCCC[C@H]3C(=O)O2)CC[C@H]1O [Example 7, 7-Demethoxy-7(S)-(2'-furanyl)rapamycin] . Reported pIC50?
// result > 6.30

Value source: patent US5728710A
